target-of-assay: T1, SH2 domain of Crkl protein (residues 1-111), wild type (UniProt P46109 1-111)
T1 construct: Crkl adaptor protein, SH2 domain, residues 1-111; Subcloned in pET28b+; all experiments were done on the N-terminally His-tagged protein; also called Crkl-SH2; Crkl SH2 domain; source: E. coli BL21 (DE3), purified (HisTrap nickel column, desalting); not shown: His tag, N-terminal, kept
T1 sequence (P46109 1-111): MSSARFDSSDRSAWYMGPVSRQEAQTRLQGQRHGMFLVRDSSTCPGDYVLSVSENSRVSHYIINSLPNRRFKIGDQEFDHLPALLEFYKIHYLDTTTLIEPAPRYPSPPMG
assay-name: stopped-flow fluorescence kinetics (FRET); dansyl-Pax112-123 constant at 2 μM mixed with Crkl-SH2 2 to 10 μM (pseudo-first-order, kon); koff by displacement of the preincubated 2 µM complex with excess non-dansylated Pax112-123 (30 μM); 283 K; 50 mM sodium-acetate pH 5.0, 0.5 M NaCl
condition: both partners purified
Square brackets hold non-standard residues; d marks the D form. Ends that are not written are not given here. * marks the point of attachment. pY = N[C@@H](Cc1ccc(OP(=O)(O)O)cc1)C(=O)O; Dansyl = CN(C)c1cccc2c(S(=O)(=O)*)cccc12
outcome-measure: Kd (µM)
# output: bare number, implied unit µM

Asked: Using the record for Dansyl-GEEEHV[pY]SFPNK (The dansyl group is the FRET acceptor of Trp14 of the SH2 domain; source: synthetic peptide, bought: GenScript) [dansylated Pax_(112–123) peptide (Dans-GEEEHV-pY-SFPNK)] , report its Kd.
Given back: 9.5
